Measurement Target: human SCD5 (Homo sapiens, UniProt Q86SK9)
Construct: expressed in transfected cells; host or cells: yeast strain with OLE1 deleted, plasmid-borne human SCD5 (selected in SD-Ura)
Method Summary: Growth inhibition of yeast strain expressing human SCD5 as sole desaturase (OLE1 deleted), OD600 readout
Assay type: cell-based
Experimental Parameters: yeast strain expressing human SCD5 as sole desaturase; growth (OD600) after 40 h at 30° C.; read-out: SCD5 IC50
Below is a list of entries, each paired with its recorded IC50 value.
Your answer should be a plain number; it is taken to be in nM.

Examples with answers:
[
  {
    "Compound": "O=C(Nc1ccc(Cc2cccc(F)c2)cn1)c1ccc(=O)n(C2CC2)n1 [Compound 75]",
    "Quantitative Readout": 10
  },
  {
    "Compound": "Cn1cc(C(=O)Nc2ccc(Cc3cc(F)ccc3F)cn2)ccc1=O [Compound 565]",
    "Quantitative Readout": 20
  },
  {
    "Compound": "CCn1cc(C(=O)Nc2ccc(Cc3ccc(F)c(Cl)c3)cn2)ccc1=O [Compound 82]",
    "Quantitative Readout": 30
  },
  {
    "Compound": "O=C(Nc1ccc(Cc2cccc(Cl)c2)cn1)c1ccc(CO)nn1 [Compound 122]",
    "Quantitative Readout": 10
  },
  {
    "Compound": "Cn1cc(C(=O)Nc2ccc(Cc3ccc(F)c(C#N)c3)cn2)ccc1=O [Compound 550]",
    "Quantitative Readout": 370
  }
]

Attention now turns to another entry.
Query CN1N=C(C(=O)Nc2ccc(CCc3cccc(Cl)c3)cn2)CCC1=O [Compound 296] yields IC50 of 860

----------
Measurement Target: human SCD5 (Homo sapiens, UniProt Q86SK9)
Construct: expressed in transfected cells; host or cells: yeast strain with OLE1 deleted, plasmid-borne human SCD5 (selected in SD-Ura)
Method Summary: Growth inhibition of yeast strain expressing human SCD5 as sole desaturase (OLE1 deleted), OD600 readout
Assay type: cell-based
Experimental Parameters: yeast strain expressing human SCD5 as sole desaturase; growth (OD600) after 40 h at 30° C.; read-out: SCD5 IC50
Recorded IC50, one value per entry.
The figure you give is taken to be in µM; do not add the unit.

Reference set, count: 3
[
  {
    "Molecule": "CN1N=C(C(=O)Nc2ccc(Cc3ccc(Cl)c(Cl)c3)nn2)CCC1=O [Compound 188]",
    "Measurement Target": "human SCD5 (Homo sapiens, UniProt Q86SK9)",
    "Unit": "µM",
    "IC50": 0.19
  },
  {
    "Molecule": "Cn1cc(C(=O)Nc2ccc(Cc3cccc(F)c3)cn2)cc(F)c1=O [Compound 117]",
    "Measurement Target": "human SCD5 (Homo sapiens, UniProt Q86SK9)",
    "Unit": "µM",
    "IC50": 0.07
  },
  {
    "Molecule": "COc1cc(Cc2ccc(NC(=O)c3cnc(Cl)cn3)nc2)ccc1F [Compound 634]",
    "Measurement Target": "human SCD5 (Homo sapiens, UniProt Q86SK9)",
    "Unit": "µM",
    "IC50": 0.28
  }
]

The recorded IC50 for Cn1c(C(=O)Nc2ccc(Cc3cccc(F)c3)cn2)coc1=O [Compound 283] is 0.27

Noted for CCn1nc(C(=O)Nc2ncc(Cc3cccc(F)c3)s2)ccc1=O [Compound 227] : its IC50 reads 0.36

# IC50 of O=C(Nc1ccc(Cc2cccc(Cl)c2)cn1)c1ccc(C2(O)CC2)nc1 [Compound 557] = 1.9

# IC50 of CNC(=O)c1ccnc(C(=O)Nc2ccc(Oc3ccccc3Cl)cn2)c1 [Compound 675] = 12

The measured IC50 associated with CN(c1ccc(NC(=O)c2ccc(=O)n(C)n2)nc1)c1cccc(F)c1 [Compound 301] reads 5.22

----------
Measurement Target: human SCD1 (Homo sapiens, UniProt O00767)
Construct: expressed in transfected cells; host or cells: yeast strain with OLE1 deleted, plasmid-borne human SCD1 (selected in SD-Ura)
Sequence (O00767 whole entry): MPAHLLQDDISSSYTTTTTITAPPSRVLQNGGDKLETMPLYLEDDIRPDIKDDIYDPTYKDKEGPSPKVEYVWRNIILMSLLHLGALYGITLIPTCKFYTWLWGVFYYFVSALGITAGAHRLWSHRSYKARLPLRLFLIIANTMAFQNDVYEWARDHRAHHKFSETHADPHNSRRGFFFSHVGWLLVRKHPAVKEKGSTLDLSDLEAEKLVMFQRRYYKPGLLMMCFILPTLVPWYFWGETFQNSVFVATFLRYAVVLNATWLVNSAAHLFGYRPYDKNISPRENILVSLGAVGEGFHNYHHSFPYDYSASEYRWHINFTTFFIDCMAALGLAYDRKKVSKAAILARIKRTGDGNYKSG
Method Summary: Growth inhibition of yeast strain expressing human SCD1 as sole desaturase (OLE1 deleted), OD600 readout
Type: cell-based
Experimental Parameters: yeast strain expressing human SCD1 as sole desaturase; growth (OD600) after 40 h at 30° C.; read-out: SCD1 IC50
Each entry below lists one item and its recorded IC50 value.

Short answer for CN1N=C(C(=O)Nc2ccc(Cc3ccc(C#N)c(Cl)c3)cn2)CCC1=O [Example 33] : IC50 was > 45 µM

Value of IC50 reported for the molecule CN1N=C(C(=O)Nc2ccc(Cc3cccc(Cl)c3)cc2)CCC1=O [Compound 2] is > 45 µM

Input Cc1cnc(C(=O)Nc2ccc(Cc3cccc(F)c3)cn2)nc1 [Compound 139] . Output IC50: 4.93 µM

Lab book: IC50 of CN1N=C(C(=O)Nc2ccc(Cc3cc(Cl)cc(Cl)c3)cn2)CCC1=O [Example 31] noted as 6.28 µM

Short answer for Cc1cnc(Cc2ccc(NC(=O)C3=NN(C)C(=O)CC3)nc2)s1 [Compound 402] : IC50 was > 45 µM

// IC50 lookup, molecule = CN1N=C(C(=O)Nc2ccc(Cc3ccc(F)c(C#N)c3)cn2)CCC1=O [Compound 10] , result: 9.54 µM

Value of measured IC50 for the entry Cn1cc(C(=O)Nc2ccc(Cc3cccc(F)c3)cc2)ccc1=O [Compound 5] : 3.34 µM

get_value(item= Cn1nc(C(=O)Nc2ccc(Cc3cccc(F)c3)cn2)cc(Br)c1=O [Compound 280] , readout=IC50) returns 0.13 µM

The reported IC50 of the molecule CN1N=C(C(=O)Nc2ccc(Cc3cncc(Cl)c3)cn2)CCC1=O [Compound 274] was > 45 µM

IC50 measured on N#Cc1cc(F)cc(Cc2ccc(NC(=O)c3ccnnc3)nc2)c1 [Compound 656] = 0.22 µM

----------
Measurement Target: human SCD5 (Homo sapiens, UniProt Q86SK9)
Construct: expressed in transfected cells; host or cells: yeast strain with OLE1 deleted, plasmid-borne human SCD5 (selected in SD-Ura)
Sequence (Q86SK9 1-330): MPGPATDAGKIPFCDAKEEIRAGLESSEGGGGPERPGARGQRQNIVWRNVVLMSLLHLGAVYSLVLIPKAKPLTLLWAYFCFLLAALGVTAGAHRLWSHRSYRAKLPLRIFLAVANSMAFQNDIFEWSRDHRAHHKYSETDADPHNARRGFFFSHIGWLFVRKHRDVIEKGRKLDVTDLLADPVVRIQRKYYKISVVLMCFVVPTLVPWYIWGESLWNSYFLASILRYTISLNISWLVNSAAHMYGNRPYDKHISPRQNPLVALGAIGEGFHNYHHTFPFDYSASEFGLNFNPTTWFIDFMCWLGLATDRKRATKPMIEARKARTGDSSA
Method Summary: Growth inhibition of yeast strain expressing human SCD5 as sole desaturase (OLE1 deleted), OD600 readout
Type: cell-based
Experimental Parameters: yeast strain expressing human SCD5 as sole desaturase; growth (OD600) after 40 h at 30° C.; read-out: SCD5 IC50
Items are presented alongside their recorded log10 of IC50.
Annotation: log10 of IC50, nM basis.

[
  {
    "Molecule": "C=C(c1ccc(C(=O)Nc2ccc(Cc3cccc(Cl)c3)cn2)cn1)C(F)(F)F",
    "log10 of IC50": 2.91
  },
  {
    "Molecule": "CN1N=C(C(=O)Nc2ccc(CC3CCCCC3)nn2)CCC1=O",
    "log10 of IC50": 3.86
  },
  {
    "Molecule": "O=C(Nc1ccc(Cc2cccc(F)c2)cn1)c1cc(CO)ccn1",
    "log10 of IC50": 1.00
  },
  {
    "Molecule": "N#Cc1cnc(C(=O)Nc2ccc(Cc3ccc(F)c(C#N)c3)cn2)cn1",
    "log10 of IC50": 1.75
  },
  {
    "Molecule": "CN1N=C(C(=O)Nc2ccc(CC3=CCCCC3)cn2)CCC1=O",
    "log10 of IC50": 2.85
  }
]

log10 of IC50 reported for this molecule CN1N=C(C(=O)Nc2ccc(/C=C/c3cccc(Cl)c3)nn2)CCC1=O [Compound 288] : 3.40

Documented log10 of IC50 of `CN1N=C(C(=O)Nc2ccc(Cc3cc(Cl)cc(C#N)c3)cn2)CCC1=O` : 3.19

// recorded log10 of IC50 for `C=Cc1cnc(C(=O)Nc2ccc(Cc3ccc(F)c(F)c3)cn2)nc1` : 2.94

----------
In this section, each of the compounds is paired with its reported IC50.
Measurement Target: human SCD5 (Homo sapiens)
Construct: expressed in transfected cells; host or cells: yeast strain with OLE1 deleted, plasmid-borne human SCD5 (selected in SD-Ura)
Sequence (Q86SK9 1-330): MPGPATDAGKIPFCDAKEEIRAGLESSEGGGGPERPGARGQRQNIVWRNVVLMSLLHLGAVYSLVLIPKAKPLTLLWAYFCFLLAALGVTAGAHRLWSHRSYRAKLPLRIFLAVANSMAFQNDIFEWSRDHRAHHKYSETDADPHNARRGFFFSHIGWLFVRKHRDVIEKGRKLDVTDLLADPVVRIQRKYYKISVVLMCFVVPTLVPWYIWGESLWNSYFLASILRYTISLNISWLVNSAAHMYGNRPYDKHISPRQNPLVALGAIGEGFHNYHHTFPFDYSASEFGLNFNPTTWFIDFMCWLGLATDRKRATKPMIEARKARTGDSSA
Method Summary: Growth inhibition of yeast strain expressing human SCD5 as sole desaturase (OLE1 deleted), OD600 readout
Format: cell-based
Experimental Parameters: yeast strain expressing human SCD5 as sole desaturase; growth (OD600) after 40 h at 30° C.; read-out: SCD5 IC50

[
  {
    "Compound": "CN1N=C(C(=O)Nc2ccc(Cc3cccc(Cl)c3)cn2)CC1=O [Compound 105]",
    "Measurement Target": "human SCD5 (Homo sapiens)",
    "IC50": "830 nM"
  },
  {
    "Compound": "O=C(Nc1ccc(Cc2cccc(F)c2)cn1)c1ccn(C2CC2)n1 [Compound 285]",
    "Measurement Target": "human SCD5 (Homo sapiens)",
    "IC50": "1430 nM"
  },
  {
    "Compound": "Cn1nc(C(=O)Nc2ccc(Cc3cccc(Cl)c3)cc2)ccc1=O [Compound 3]",
    "Measurement Target": "human SCD5 (Homo sapiens)",
    "IC50": "450 nM"
  }
]

Kindly consider the entry below.
Input CCN1N=C(C(=O)Nc2ncc(Cc3cccc(F)c3)s2)CCC1=O [Compound 414] . Output IC50: > 45000 nM
